target: human 5-HT2C receptor (Homo sapiens, UniProt P28335); assay: 5-HT2C receptor-stimulated calcium mobilization (FLIPR) in CHO cells; assay type: cell-based; settings: read-out: 5-HT2C Function EC50
Sequence (P28335 33-458): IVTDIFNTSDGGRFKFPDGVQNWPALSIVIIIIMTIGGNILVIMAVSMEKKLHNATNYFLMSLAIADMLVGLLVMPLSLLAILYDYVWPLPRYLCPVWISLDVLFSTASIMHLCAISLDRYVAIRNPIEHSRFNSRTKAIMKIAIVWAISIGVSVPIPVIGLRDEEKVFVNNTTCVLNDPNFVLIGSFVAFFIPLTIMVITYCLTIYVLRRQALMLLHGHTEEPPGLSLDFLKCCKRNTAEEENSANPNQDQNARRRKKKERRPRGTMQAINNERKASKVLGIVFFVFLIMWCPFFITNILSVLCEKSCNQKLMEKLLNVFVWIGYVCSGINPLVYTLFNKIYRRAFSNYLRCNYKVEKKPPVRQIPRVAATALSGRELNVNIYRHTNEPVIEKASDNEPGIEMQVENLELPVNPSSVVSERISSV
valueKind: EC50

The measured EC50 associated with NCC1Oc2cc(Cl)cc(-c3ccc(Cl)cc3Cl)c2O1 (stereo not shown) reads < 100 nM

Entry COc1ccccc1-c1cc(F)cc2c1OC(CN)O2 (stereo not shown) , EC50 reported as < 100 nM

Looking up CNCC1COc2cccc(-c3ccccc3Cl)c2O1 (stereo not shown) , I found its EC50 recorded as < 100 nM

Entry under test: NCC1COc2cccc(-c3cccc(F)c3F)c2O1 (stereo not shown) . Its EC50 was < 100 nM

Please fill in: EC50 reported for Cc1ccccc1-c1cc(Cl)cc2c1OC(CN)O2 (stereo not shown) = < 100 nM

Value of measured EC50 for the entry Clc1ccccc1-c1cccc2c1OC(CNCC1CC1)CO2 (stereo not shown) : > 500 nM

// recorded EC50 for CC(C)NCC1COc2cccc(-c3ccc(Cl)cc3Cl)c2O1 (stereo not shown) : > 500 nM

EC50 recorded for this compound, COc1ccccc1-c1cccc2c1OC(CN)CO2 (stereo not shown) , is < 100 nM

The measured EC50 associated with NCC1Oc2cc(Cl)cc(-c3cc(Cl)ccc3Cl)c2O1 (stereo not shown) reads < 100 nM

Recorded result, NCC1COc2cccc(-c3ccc(F)cc3F)c2O1 (stereo not shown) , EC50: < 100 nM

###

molecular target: human 5-hydroxytryptamine-2C (h5-HT2C) receptor (Homo sapiens); construct: expressed in transfected cells; host or cells: CHO (Chinese Hamster Ovary) cells; membranes; experiment: 5-HT2C binding: [125I]DOI displacement in membranes of transfected CHO cells; conditions: read-out: 5-HT2C Binding Ki avg
Sequence (P28335 33-458): as above
pKi: −log10 of the molar value.
valueKind: pKi

Documented pKi of CNCC1COc2cccc(-c3ccccc3Cl)c2O1 (stereo not drawn) : > 7.30

Just so you know, measured pKi for COc1ccccc1-c1cccc2c1OC(CN)CO2 (stereo not drawn) came out at 6.70 to 7.30

NCC1Oc2cc(Cl)cc(-c3ccccc3Cl)c2O1 (stereo not drawn) has a reported pKi of > 7.30

###

target: human 5-hydroxytryptamine-2C (h5-HT2C) receptor (Homo sapiens); construct: expressed in transfected cells; host or cells: CHO (Chinese Hamster Ovary) cells; membranes; assay: 5-HT2C binding: [125I]DOI displacement in membranes of transfected CHO cells; conditions: read-out: 5-HT2C Binding Ki avg
valueKind: Ki

Measured Ki of NCC1COc2cccc(-c3ccccc3F)c2O1 (stereo not shown) : < 50 nM

Form: molecule = COc1cccc(-c2cc(Cl)cc3c2O[C@@H](CN)CO3)c1OC ; Ki = < 50 nM

For record COc1ccccc1-c1cc(Cl)cc2c1OC(CN)O2 (stereo not shown) the listed Ki is 50 to 200 nM

Looking up NC[C@H]1COc2cc(Cl)cc(-c3ccc(Cl)cc3Cl)c2O1 , I see its Ki listed as < 50 nM

Recorded result, COc1cccc(-c2cccc3c2OC(CN)CO3)c1OC (stereo not shown) , Ki: < 50 nM

Entry under test: CN(C)CC1COc2cccc(-c3ccc(Cl)cc3Cl)c2O1 (stereo not shown) . Its Ki was < 50 nM

Query Cc1ccccc1-c1cccc2c1OC(CN)CO2 (stereo not shown) yields Ki of < 50 nM

The reported value for NCC1COc2cccc(-c3ccc(Cl)cc3Cl)c2O1 (stereo not shown) in terms of Ki is < 50 nM

Value of Ki reported for the molecule NCC1COc2cccc(-c3cccc(F)c3F)c2O1 (stereo not shown) is < 50 nM

Item: Cc1cccc(-c2cccc3c2OC(CN)CO3)c1C (stereo not shown) | Ki: > 200 nM

Ki reported for this molecule Clc1ccc(-c2cccc3c2OC(CNCC2CC2)CO3)c(Cl)c1 (stereo not shown) : > 200 nM

Note to self: Ki recorded for NC[C@H]1COc2cc(Cl)cc(-c3cc(Cl)ccc3Cl)c2O1 was < 50 nM

The molecule listed as C[C@]1(CN)COc2cccc(-c3cccc(Cl)c3)c2O1 shows Ki equal to > 200 nM

Ki measured on NC[C@@H]1Oc2cc(F)cc(-c3c(Cl)cccc3Cl)c2O1 = < 50 nM

So for CN(C)CC1Oc2cc(F)cc(-c3ccccc3Cl)c2O1 (stereo not shown) , the logged Ki turned out to be 50 to 200 nM

Data point: Cc1ccc(C)c(-c2cccc3c2OC(CN)CO3)c1 (stereo not shown) ; Ki = > 200 nM

Quick note, Ki for NCC1Oc2cc(F)cc(-c3ccccc3C(F)(F)F)c2O1 (stereo not shown) landed at < 50 nM

The molecule NCC1Oc2cc(Cl)cc(-c3cc(F)ccc3F)c2O1 (stereo not shown) showed Ki equal to 50 to 200 nM

Lab note: measured Ki of NCC1COc2cccc(-c3cccc(Cl)c3Cl)c2O1 (stereo not shown) was 50 to 200 nM

Ki measured on COc1ccc(Cl)cc1-c1cc(Cl)cc2c1OC(CN)O2 (stereo not shown) = > 200 nM

Sure, the documented Ki for NCC1COc2cccc(-c3cc(F)ccc3F)c2O1 (stereo not shown) is < 50 nM

Record COc1cccc(-c2cc(Cl)cc3c2OC(CN)O3)c1OC (stereo not shown) , field Ki: 50 to 200 nM

Measured Ki, Clc1ccc(-c2cccc3c2OC(CNC2CCC2)CO3)c(Cl)c1 (stereo not shown) : > 200 nM

Value of Ki reported for the molecule NCC1COc2cccc(-c3ccc(F)cc3F)c2O1 (stereo not shown) is < 50 nM

Given item Cc1ccccc1-c1cc(Cl)cc2c1O[C@@H](CN)CO2 , the value recorded as its Ki is < 50 nM

// recorded Ki for Cc1ccccc1-c1cc(Cl)cc2c1OC(CN)O2 (stereo not shown) : < 50 nM

// sample Cc1ccccc1-c1c(Cl)ccc2c1O[C@@H](CN)CO2 , its Ki was < 50 nM

Quick note, Ki for COc1ccccc1-c1cc(Cl)cc2c1O[C@@H](CN)CO2 landed at < 50 nM

Per the record, CNCC1COc2cccc(-c3ccccc3F)c2O1 (stereo not shown) has Ki of < 50 nM

Notebook: NC[C@H]1COc2ccc(F)c(-c3ccccc3Cl)c2O1 , Ki read as < 50 nM

// sample CNCC1Oc2cc(F)cc(-c3ccccc3Cl)c2O1 (stereo not shown) , its Ki was < 50 nM

Ki reading for NCC1Oc2cc(Cl)cc(-c3ccc(Cl)cc3Cl)c2O1 (stereo not shown) : < 50 nM

The recorded Ki for entry C[C@]1(CN)COc2cccc(-c3ccc(Cl)cc3)c2O1 equals > 200 nM

The molecule NC[C@H]1COc2cc(Cl)cc(-c3ccccc3Cl)c2O1 showed Ki equal to < 50 nM

Query Cc1ccccc1-c1cc(F)cc2c1OC(CN)O2 (stereo not shown) yields Ki of < 50 nM

Reported Ki for Cc1cccc(C)c1-c1cc(Cl)cc2c1O[C@@H](CN)CO2 was < 50 nM

Query CNCC1COc2cccc(-c3cc(Cl)ccc3OC)c2O1 (stereo not shown) yields Ki of > 200 nM

Ki reported for this molecule NCC1Oc2cc(F)cc(-c3ccccc3)c2O1 (stereo not shown) : 50 to 200 nM

Entry NC[C@H]1COc2cccc(-c3ccccc3C(F)(F)F)c2O1 , Ki reported as < 50 nM

Consider NCC1Oc2cc(F)cc(-c3ccc(Cl)cc3)c2O1 (stereo not shown) . Its measured Ki is 50 to 200 nM

Numbers sourced from patent US20060241172A1.
